These data points were gathered from patent US20250186467A1.

Target: UniProt:V9H0F6
Sequence (V9H0F6 entry or part of it): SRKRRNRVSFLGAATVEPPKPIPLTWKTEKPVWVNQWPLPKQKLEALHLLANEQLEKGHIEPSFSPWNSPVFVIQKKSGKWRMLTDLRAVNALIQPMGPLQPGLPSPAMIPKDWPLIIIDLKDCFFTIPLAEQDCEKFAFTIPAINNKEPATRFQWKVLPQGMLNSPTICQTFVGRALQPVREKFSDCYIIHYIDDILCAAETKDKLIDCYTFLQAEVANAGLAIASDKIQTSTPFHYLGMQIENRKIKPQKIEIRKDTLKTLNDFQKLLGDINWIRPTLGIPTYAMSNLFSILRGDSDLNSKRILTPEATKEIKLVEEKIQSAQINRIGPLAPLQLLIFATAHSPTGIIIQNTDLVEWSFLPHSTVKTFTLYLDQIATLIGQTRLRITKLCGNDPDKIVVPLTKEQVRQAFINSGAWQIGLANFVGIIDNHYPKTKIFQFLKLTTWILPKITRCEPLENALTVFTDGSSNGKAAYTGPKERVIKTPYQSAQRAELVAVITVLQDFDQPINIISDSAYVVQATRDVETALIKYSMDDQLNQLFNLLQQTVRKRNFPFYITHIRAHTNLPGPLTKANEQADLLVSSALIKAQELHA
Experiment: Homogeneous time-resolved fluorescence (HTRF) HERV-K RT assay
Format: biochemical
Settings: HERV-K reverse transcriptase (2-596)-8His protein, read-out: IC50, inhibition of HERV-K reverse transcriptase
READOUT: pIC50
Bear in mind: pIC50 is minus log10 of a mol/L concentration; give just that figure.

Quick one: pIC50 of Cc1cn([C@H]2C=C[C@@H](COP(=O)(O)OP(=O)(O)OP(=O)(O)O)O2)c(=O)[nH]c1=O [drawing 39] ?
7.38
